B1: ZNF449 (parent)
chain: FQEYDTDCEVFRQRFRQFQYREAA

Variants of: B1
Assay: protein stability index of a GFP-peptide fusion (GPS, HEK-293T) (PSI 1-6); higher = more stable;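 further: lentivirally expressed fusions sorted by FACS into six bins by GFP to DsRed ratio, PSI derived from sequencing read proportions per bin multiplied by bin number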
Settings: c terminus: a fixed tail appended
This section presents variants with their documented protein stability index values.

variant-designation: C8W
protein stability index: 1.83

variant-designation: F15A
protein stability index: 3.02

variant-designation: E9D
protein stability index: 2.16

variant-designation: Y4M
protein stability index: 2.25

variant-designation: R21P
protein stability index: 2.44

variant-designation: Y20C
protein stability index: 2.2

variant-designation: A24N
protein stability index: 2.65

variant-designation: Q2M
protein stability index: 2.61

variant-designation: D5Y
protein stability index: 2.55

variant-designation: T6L
protein stability index: 1.89

variant-designation: R14G
protein stability index: 2.67

variant-designation: Q2Y
protein stability index: 2.5

variant-designation: F18D
protein stability index: 1.79

variant-designation: F18S
protein stability index: 2.1

variant-designation: F18G
protein stability index: 2.4

variant-designation: F15T
protein stability index: 2.66

variant-designation: E9L
protein stability index: 1.67

variant-designation: F18Q
protein stability index: 3.56

variant-designation: Y4F
protein stability index: 2.5

variant-designation: C8Y
protein stability index: 2

variant-designation: F18M
protein stability index: 3.07

variant-designation: A23Q
protein stability index: 2.89

variant-designation: Q2T
protein stability index: 2.69

variant-designation: E22C
protein stability index: 2.39

variant-designation: R21F
protein stability index: 2.91

variant-designation: Q17G
protein stability index: 2.22

variant-designation: E9I
protein stability index: 2.47

variant-designation: A24H
protein stability index: 1.96

variant-designation: A23L
protein stability index: 2.51

variant-designation: T6I
protein stability index: 2.74

variant-designation: R14I
protein stability index: 1.9

variant-designation: C8Q
protein stability index: 2.21

variant-designation: R14L
protein stability index: 2.37

variant-designation: A23I
protein stability index: 1.7

variant-designation: T6M
protein stability index: 2.13

variant-designation: Y20P
protein stability index: 2.81

variant-designation: V10H
protein stability index: 3

variant-designation: C8M
protein stability index: 2.71

variant-designation: Y20F
protein stability index: 2.57

variant-designation: E9H
protein stability index: 1.6

variant-designation: F11H
protein stability index: 3.45

variant-designation: F1D
protein stability index: 3.01

variant-designation: D5F
protein stability index: 1.65

variant-designation: Q2P
protein stability index: 2.72

variant-designation: F1T
protein stability index: 3.22

variant-designation: R16N
protein stability index: 2.46
